Experimental Protocol: Therapeutic index measured as ratio of EC50 for Davis/CC50 for HEL 299
Experimental Context: human; read-out: Therapeutic index
Could you please report measured selectivity ratio for the items listed next?

The reported selectivity ratio of the compound `CCOP(=O)(O)COCOn1cnc2c(O)nc(N)nc21` was > 700

Measured selectivity ratio, `Nc1nc2c(ncn2COC(CO)CO)c(=O)[nH]1` : > 500

====

Experimental Protocol: Therapeutic index measured as ratio of […]
Experimental Context: human; read-out: Therapeutic index
Parameter Measured: selectivity ratio

The molecule `Nc1nc2c(ncn2COC(CO)CO)c(=O)[nH]1` showed selectivity ratio equal to > 200

Recorded result, `CCOP(=O)(O)COCOn1cnc2c(O)nc(N)nc21` , selectivity ratio: > 200
